Assay: background-corrected fluorescence of 3'-dye-labeled ssDNA relative to brightest sequence (3'-GCGCG) (fraction); higher = brighter dye fluorescence (less quenching)
Conditions: dye: Cy3 (3' terminal)
READOUT_TYPE: background-corrected fluorescence

monomer_sequence="TTTTTTGCTCATGAGCATGCTTTTTTTTTTTTTTTAGCTA [ATCGA]" endpoint_value=0.512
monomer_sequence="TTTTTTGATGCGCATGATGATTTTTTTTTTTTTTTCATCC [CCTAC]" endpoint_value=0.38
monomer_sequence="TTTTTTGAGCATCATGCGCATTTTTTTTTTTTTTTCTGAT [TAGTC]" endpoint_value=0.59
monomer_sequence="TTTTTTCATGCTGATGATGCTTTTTTTTTTTTTTTGACCA [ACCAG]" endpoint_value=0.499
monomer_sequence="TTTTTTGATGCTCATCATGCTTTTTTTTTTTTTTTCAGGA [AGGAC]" endpoint_value=0.705
monomer_sequence="TTTTTGCATGATGATCATCATTTTTTTTTTTTTTTTCCGG [GGCCT]" endpoint_value=0.617
monomer_sequence="TTTTTTGATGATGCGCATGATTTTTTTTTTTTTTTCCATC [CTACC]" endpoint_value=0.387
monomer_sequence="TTTTTTGAGCATGATGCTGCTTTTTTTTTTTTTTTCTCAA [AACTC]" endpoint_value=0.52
monomer_sequence=TTTTTGCATGATCAGCATGCTTTTTTTTTTTTTTTTCGTA endpoint_value=0.59
monomer_sequence="TTTTTTGCTGATGCTGCTCATTTTTTTTTTTTTTTACAAG [GAACA]" endpoint_value=0.53
monomer_sequence="TTTTTGCATCAGCATCATGCTTTTTTTTTTTTTTTTGTGA [AGTGT]" endpoint_value=0.68
monomer_sequence="TTTTTTGCTGCTGATCATCATTTTTTTTTTTTTTTAACGG [GGCAA]" endpoint_value=0.652
monomer_sequence="TTTTTTCATGATGATGCTGCTTTTTTTTTTTTTTTGCCAA [AACCG]" endpoint_value=0.504
monomer_sequence="TTTTTTCAGCATGATGCTGCTTTTTTTTTTTTTTTGTCAA [AACTG]" endpoint_value=0.609
monomer_sequence="TTTTTGCATGCTGCTGATCATTTTTTTTTTTTTTTTAACG [GCAAT]" endpoint_value=0.51

Source listed as the supplement of paper PMC9428881.
